- subject_of_test: angiotensin II (A-II) receptor (Bos taurus)
- Construct: An A-II receptor membrane fraction was prepared from bovine adrenal cortex; from tissue; host or cells: bovine adrenal cortex membrane fraction
- Sequence (P25104 1-359): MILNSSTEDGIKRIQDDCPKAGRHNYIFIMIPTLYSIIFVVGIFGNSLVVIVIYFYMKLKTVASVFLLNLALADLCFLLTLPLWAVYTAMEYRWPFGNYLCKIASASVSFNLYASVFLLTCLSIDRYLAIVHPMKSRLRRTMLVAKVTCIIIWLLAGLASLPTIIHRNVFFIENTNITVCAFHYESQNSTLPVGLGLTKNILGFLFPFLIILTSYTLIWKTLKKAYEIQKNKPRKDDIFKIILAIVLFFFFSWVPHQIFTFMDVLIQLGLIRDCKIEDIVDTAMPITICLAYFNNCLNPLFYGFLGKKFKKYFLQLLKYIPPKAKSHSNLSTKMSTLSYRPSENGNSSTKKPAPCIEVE
- experiment_notes: Inhibitory Effect of Binding of Angiotensin-II to Angiotensin Receptor (radioreceptor assay, 125I-AII, adrenal cortex membrane fraction)
- cond: 10^-6 M, bovine adrenal cortex membrane, room temperature, one hour
The threshold is inclusive: inhibition at 1 µM of exactly 60% counts as True; values below receive False.

1) COc1nc2c(C)sc(C(=O)O)c2n1Cc1ccc(-c2ccccc2-c2nc(=O)o[nH]2)cc1
False
2) CCOc1nc2cccc(C(=O)O)c2n1Cc1ccc(-c2ccccc2-c2nc(=O)o[nH]2)cc1
True
3) COC(=O)c1cccc2nc(C3CC3)n(Cc3ccc(-c4ccccc4-c4nc(=O)o[nH]4)cc3)c12 [Example 32c]
True
4) CCCc1nc2cccc(C(=O)O)c2n1Cc1ccc(-c2ccccc2-c2nc(=O)o[nH]2)cc1
True
5) O=C(O)c1cccc2nc(C3CC3)n(Cc3ccc(-c4ccccc4-c4noc(=O)[nH]4)cc3)c12
True
6) CCOc1nc2cccc(C(=O)OC(C)OC(=O)OC3CCCCC3)c2n1Cc1ccc(-c2ccccc2-c2nc(=O)o[nH]2)cc1 (stereo not shown)
False
7) CCCOc1nc2c(C)sc(C(=O)O)c2n1Cc1ccc(-c2ccccc2-c2nc(=O)o[nH]2)cc1
False
8) CCc1nc2cccc(C(=O)O)c2n1Cc1ccc(-c2ccccc2-c2nc(=O)o[nH]2)cc1
True
9) CCOc1nc2cccc(C(=O)OC)c2n1Cc1ccc(-c2ccccc2-c2nc(=O)s[nH]2)cc1
True
10) COc1nc2cccc(C(=O)O)c2n1Cc1ccc(-c2ccccc2-c2noc(=O)[nH]2)cc1
True
11) CCc1nc2c(C)cc(C(=O)O)nc2n1Cc1ccc(-c2ccccc2-c2nc(=O)o[nH]2)cc1
True
12) CCOc1nc2c(C)sc(C(=O)O)c2n1Cc1ccc(-c2ccccc2-c2nc(=O)o[nH]2)cc1
False

====

- subject_of_test: angiotensin II (A-II) receptor (Bos taurus)
- Construct: An A-II receptor membrane fraction was prepared from bovine adrenal cortex; from tissue; host or cells: bovine adrenal cortex membrane fraction
- experiment_notes: Inhibitory Effect of Binding of Angiotensin-II to Angiotensin Receptor (radioreceptor assay, 125I-AII, adrenal cortex membrane fraction)
- cond: 10^-6 M, bovine adrenal cortex membrane, room temperature, one hour
measurement_kind: inhibition at 1 µM (%)

1. CCCCc1nc2cccc(C(=O)O)c2n1Cc1ccc(-c2ccccc2-c2noc(=O)[nH]2)cc1
70
2. CCNc1nc2c(C)sc(C(=O)O)c2n1Cc1ccc(-c2ccccc2-c2nc(=O)o[nH]2)cc1
78
3. CCOc1nc2cccc(C(=O)OC)c2n1Cc1ccc(-c2ccccc2C2=NOS(=O)N2)cc1 (stereo not shown)
75
4. CCSc1nc2c(C)sc(C(=O)O)c2n1Cc1ccc(-c2ccccc2-c2noc(=O)[nH]2)cc1
40
